Experiment: Bioabsorbability Test 2 of coenzyme Q10 (Test Example 1-4)
Type: in vivo
Conditions: male, SD, rat, plasma, po, 5 mg/kg, fasting, 24 hours
Experimental Readout: concentration at 24 h (ng/mL)
A number alone suffices; assume ng/mL.

Query: concentration at 24 h; subject: `COC1=C(OC)C(=O)C(C/C=C(\C)CC/C=C(\C)CC/C=C(\C)CC/C=C(\C)CC/C=C(\C)CC/C=C(\C)CC/C=C(\C)CC/C=C(\C)CC/C=C(\C)CCC=C(C)C)=C(C)C1=O`
40

* * *

Assay: Bioabsorbability Test 2 of coenzyme Q10 (Test Example 1-4)
Type: in vivo
Conditions: male, SD, rat, plasma, po, 5 mg/kg, satiation, 2 hours
Experimental Readout: concentration at 2 h (ng/mL)
Only the number, expressed in ng/mL, is required.

Record request: concentration at 2 h value, item COC1=C(OC)C(=O)C(C/C=C(\C)CC/C=C(\C)CC/C=C(\C)CC/C=C(\C)CC/C=C(\C)CC/C=C(\C)CC/C=C(\C)CC/C=C(\C)CC/C=C(\C)CCC=C(C)C)=C(C)C1=O [Coenzyme Q10 Powder, coenzyme Q10]
170
